- SUBJECT_OF_TEST: p110 delta (Homo sapiens, UniProt O00329)
- Construct: Dundee, UK
- Sequence (O00329 whole entry): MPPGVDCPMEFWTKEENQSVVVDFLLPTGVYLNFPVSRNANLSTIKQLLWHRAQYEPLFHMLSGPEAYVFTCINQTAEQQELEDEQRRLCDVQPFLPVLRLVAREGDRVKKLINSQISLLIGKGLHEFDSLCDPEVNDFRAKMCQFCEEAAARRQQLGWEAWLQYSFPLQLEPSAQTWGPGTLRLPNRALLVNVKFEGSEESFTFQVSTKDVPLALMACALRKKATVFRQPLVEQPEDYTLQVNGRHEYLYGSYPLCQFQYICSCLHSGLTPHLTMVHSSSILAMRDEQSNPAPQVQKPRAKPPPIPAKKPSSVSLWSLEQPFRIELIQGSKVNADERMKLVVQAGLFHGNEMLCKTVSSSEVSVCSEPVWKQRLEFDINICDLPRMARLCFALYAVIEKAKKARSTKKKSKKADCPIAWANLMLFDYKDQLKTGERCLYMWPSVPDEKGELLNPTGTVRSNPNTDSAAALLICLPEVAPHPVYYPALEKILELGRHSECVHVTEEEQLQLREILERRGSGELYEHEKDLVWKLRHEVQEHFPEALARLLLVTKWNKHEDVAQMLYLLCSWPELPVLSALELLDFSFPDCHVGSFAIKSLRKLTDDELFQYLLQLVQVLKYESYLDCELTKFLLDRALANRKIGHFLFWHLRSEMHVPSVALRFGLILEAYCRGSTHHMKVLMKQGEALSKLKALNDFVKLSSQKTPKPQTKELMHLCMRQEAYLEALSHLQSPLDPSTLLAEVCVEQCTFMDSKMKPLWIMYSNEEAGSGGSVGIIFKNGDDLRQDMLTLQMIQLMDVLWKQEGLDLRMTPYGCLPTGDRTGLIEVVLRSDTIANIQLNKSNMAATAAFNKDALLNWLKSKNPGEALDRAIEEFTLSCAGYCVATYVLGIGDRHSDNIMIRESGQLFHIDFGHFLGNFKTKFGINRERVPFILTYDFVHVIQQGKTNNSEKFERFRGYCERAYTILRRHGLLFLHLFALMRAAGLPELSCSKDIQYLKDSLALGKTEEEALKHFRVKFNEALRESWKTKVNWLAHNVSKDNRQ
- Sequence (P27986 whole entry partner): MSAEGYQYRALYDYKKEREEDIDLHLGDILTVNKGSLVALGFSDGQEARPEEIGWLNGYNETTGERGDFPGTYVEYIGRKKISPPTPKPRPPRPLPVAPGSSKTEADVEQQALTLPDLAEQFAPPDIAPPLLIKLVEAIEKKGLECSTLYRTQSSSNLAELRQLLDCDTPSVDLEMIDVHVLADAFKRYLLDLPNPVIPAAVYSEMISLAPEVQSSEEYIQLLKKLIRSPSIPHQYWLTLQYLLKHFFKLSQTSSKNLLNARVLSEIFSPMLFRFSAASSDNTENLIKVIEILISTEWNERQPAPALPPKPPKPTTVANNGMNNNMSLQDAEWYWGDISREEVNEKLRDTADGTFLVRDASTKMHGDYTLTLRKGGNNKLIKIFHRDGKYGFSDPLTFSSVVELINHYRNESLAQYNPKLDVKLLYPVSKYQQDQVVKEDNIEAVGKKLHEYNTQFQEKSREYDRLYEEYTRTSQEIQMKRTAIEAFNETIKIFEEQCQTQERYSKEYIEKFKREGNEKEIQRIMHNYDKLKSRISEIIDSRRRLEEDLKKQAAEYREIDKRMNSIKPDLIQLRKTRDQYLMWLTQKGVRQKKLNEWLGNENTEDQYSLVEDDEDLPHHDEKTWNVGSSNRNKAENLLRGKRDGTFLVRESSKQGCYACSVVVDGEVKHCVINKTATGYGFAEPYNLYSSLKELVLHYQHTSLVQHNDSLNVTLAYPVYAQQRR
- ASSAY_NAME: PI3K Isoform Inhibition Assay, p110 delta
- ASSAY_SETUP: PI3K isoform inhibition assay of Example 901
# strict inequality: IC50 < 20 nM yields met, everything else yields not met

Query block: Determine whether this compound shows IC50 lower than 20 nM (ties excluded): CC1(COc2ccc3nc(-c4cnc(N)nc4)nc(N4CCOCC4)c3n2)COC1
Result block: met

Query block: Is it true that IC50 reported for Cc1cnc2c(N3CCOCC3)nc(-c3cnc(N)nc3)nc2c1 is less than 20 nM?
Result block: met

Query block: Consider CC(C)(O)C1CCN(Cc2ccc3nc(-c4cccc5nccn45)nc(N4CCOCC4)c3n2)CC1 . Does its IC50 lie strictly below 20 nM?
Result block: not met

Query block: # TODO verify IC50 < 20 nM strictly for this compound: Cc1nc(N)ccc1-c1nc(N2CCOCC2)c2nc(CN3CCC(C(C)(C)O)CC3)ccc2n1
Result block: met

Query block: Strictly below 20 nM in IC50? Fc1ccc2[nH]ccc2c1-c1ccc2nc(N3CCOCC3)nc(N3CCOCC3)c2n1
Result block: not met

Query block: Would you kindly verify if IC50 of CNc1ncccc1-c1nc(N2CCOCC2)c2nc(CN3CCC(C(C)(C)O)CC3)ccc2n1 is strictly less than 20 nM?
Result block: not met

Query block: Dear reviewer, please state whether Cc1nc2ccccc2n1-c1nc(N2CCOCC2)c2nc(CN3CCC(C(C)(C)O)CC3)ccc2n1 has IC50 strictly beneath 20 nM.
Result block: met

Query block: Determine if CC(C)(O)C1CCN(Cc2ccc3nc(-c4cccc5[nH]ccc45)nc(N4CCOCC4)c3n2)CC1 shows IC50 strictly lower than 20 nM.
Result block: met

Query block: IC50 strictly < 20 nM for this compound? CC(C)(C(N)=O)N1CCN(Cc2ccc3nc(-c4c(F)ccc5[nH]ccc45)nc(N4CCOCC4)c3n2)CC1
Result block: met

Query block: Confirm or reject: IC50 of Cc1cc2ccccc2n1-c1nc(N2CCOCC2)c2nc(CN3CCC(C(C)(C)O)CC3)ccc2n1 lies strictly below 20 nM
Result block: not met

Query block: Answer whether the compound CC(C)(O)C1CCN(Cc2ccc3nc(-c4cnc(N)nc4)nc(N4CCOCC4)c3n2)CC1 has IC50 strictly less than 20 nM
Result block: met

Query block: IC50 strictly < 20 nM for this compound? CC(C)c1nc2ccccc2n1-c1nc(N2CCOCC2)c2nc(CN3CCC(C(C)(C)O)CC3)ccc2n1
Result block: met

Query block: Dear reviewer, please state whether CC(C)(O)C1CCN(Cc2ccc3nc(-c4c[nH]c5ccccc45)nc(N4CCOCC4)c3n2)CC1 has IC50 strictly beneath 20 nM.
Result block: not met

Query block: Is IC50 of Cc1cc(-c2nc(N3CCOCC3)c3nc(CN4CCC(C(C)(C)O)CC4)ccc3n2)cnc1N strictly below 20 nM?
Result block: not met

Query block: Please state whether IC50 is below 20 nM for CC(C)(O)C1CCN(Cc2ccc3nc(-n4c(C5CC5)nc5ccccc54)nc(N4CCOCC4)c3n2)CC1
Result block: met

Query block: Would you kindly verify if IC50 of CC(C)(O)C1CCN(C(=O)c2ccc3nc(-c4c(F)ccc5[nH]ccc45)nc(N4CCOCC4)c3n2)CC1 is strictly less than 20 nM?
Result block: met

###

- SUBJECT_OF_TEST: p110 alpha (Homo sapiens, UniProt P42336)
- Construct: purchased Upstate Group, Millipore; Dundee, UK
- Sequence (P42336 whole entry, one chain of several): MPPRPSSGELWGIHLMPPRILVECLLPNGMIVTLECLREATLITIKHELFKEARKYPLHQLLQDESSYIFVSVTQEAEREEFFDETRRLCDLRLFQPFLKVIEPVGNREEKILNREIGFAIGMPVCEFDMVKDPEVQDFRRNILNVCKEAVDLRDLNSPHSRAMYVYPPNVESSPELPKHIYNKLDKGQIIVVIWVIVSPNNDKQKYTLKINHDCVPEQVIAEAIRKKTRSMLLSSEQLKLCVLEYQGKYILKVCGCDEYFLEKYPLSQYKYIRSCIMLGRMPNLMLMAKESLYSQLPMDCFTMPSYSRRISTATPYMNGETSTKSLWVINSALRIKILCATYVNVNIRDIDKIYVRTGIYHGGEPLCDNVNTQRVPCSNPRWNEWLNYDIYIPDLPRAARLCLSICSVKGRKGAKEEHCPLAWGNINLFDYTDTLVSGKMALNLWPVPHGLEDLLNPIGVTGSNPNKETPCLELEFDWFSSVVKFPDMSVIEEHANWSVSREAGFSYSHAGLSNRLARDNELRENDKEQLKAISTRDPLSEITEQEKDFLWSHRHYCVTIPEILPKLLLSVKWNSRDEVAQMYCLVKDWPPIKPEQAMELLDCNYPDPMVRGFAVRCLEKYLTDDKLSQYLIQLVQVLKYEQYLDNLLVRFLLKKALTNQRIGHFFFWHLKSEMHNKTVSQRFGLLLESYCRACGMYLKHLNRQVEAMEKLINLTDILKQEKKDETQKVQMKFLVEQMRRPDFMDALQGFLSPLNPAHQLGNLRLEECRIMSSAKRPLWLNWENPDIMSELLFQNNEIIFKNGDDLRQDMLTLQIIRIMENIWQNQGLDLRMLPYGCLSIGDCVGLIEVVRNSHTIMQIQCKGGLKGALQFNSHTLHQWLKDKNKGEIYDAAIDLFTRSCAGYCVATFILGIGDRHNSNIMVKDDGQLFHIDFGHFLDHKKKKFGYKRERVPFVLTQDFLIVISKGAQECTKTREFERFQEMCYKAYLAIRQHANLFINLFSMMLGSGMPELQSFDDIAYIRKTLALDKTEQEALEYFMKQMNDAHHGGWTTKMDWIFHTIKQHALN
- ASSAY_NAME: PI3K Isoform Inhibition Assay, p110 alpha (delta/alpha selectivity)
- ASSAY_SETUP: ratio of biochemical IC50 values
Mark satisfied for IC50 p110 alpha/IC50 p110 delta under 10, not satisfied if at or over.

Query block: State whether 10 exceeds IC50 p110 alpha/IC50 p110 delta recorded for CO[C@@H](C)c1nc2ccccc2n1-c1nc(N2CCOCC2)c2nc(CN3CCC(C(C)(C)O)CC3)ccc2n1 .
Result block: not satisfied

Query block: IC50 p110 alpha/IC50 p110 delta under 10? Item: Cc1cnc2c(N3CCOCC3)nc(-c3cnc(N)nc3)nc2c1
Result block: satisfied

Query block: Say whether its IC50 p110 alpha/IC50 p110 delta is strictly beneath 10. Entry: CC(C)(O)C1CCN(Cc2ccc3nc(-c4c[nH]c5ccccc45)nc(N4CCOCC4)c3n2)CC1
Result block: not satisfied

Query block: Answer whether the molecule COC1CN(c2cnc3c(N4CCOCC4)nc(N4CC(OC)C4)nc3c2)C1 has IC50 p110 alpha/IC50 p110 delta strictly less than 10
Result block: satisfied

Query block: Is IC50 p110 alpha/IC50 p110 delta strictly under 10 for the entry COC(=O)C(C)(C)N1CC(Cc2ccc3nc(-n4c(C(C)C)nc5ccccc54)nc(N4CCOCC4)c3n2)C1 ?
Result block: not satisfied

Query block: Please let me know if Cc1cc2ccccc2n1-c1nc(N2CCOCC2)c2nc(CN3CCC(C(C)(C)O)CC3)ccc2n1 shows IC50 p110 alpha/IC50 p110 delta below 10.
Result block: not satisfied

Query block: Is IC50 p110 alpha/IC50 p110 delta strictly under 10 for the entry Cc1cc(Nc2nc(N3CCOCC3)c3nc(CN4CCC(C(C)(C)O)CC4)ccc3n2)n[nH]1 ?
Result block: not satisfied

Query block: Please indicate whether the reported IC50 p110 alpha/IC50 p110 delta of CC(C)(O)C1CCN(Cc2ccc3nc(-c4ccc(N)nc4)nc(N4CCOCC4)c3n2)CC1 is strictly below 10.
Result block: not satisfied

Query block: In the record for CC(C)(O)C1CCN(Cc2ccc3nc(-n4c(C5CC5)nc5ccccc54)nc(N4CCOCC4)c3n2)CC1 , is IC50 p110 alpha/IC50 p110 delta less than 10?
Result block: not satisfied

Query block: Consider CCc1nc2ccccc2n1-c1nc(N2CCOCC2)c2nc(CN3CC(N4CCNC(=O)C4)C3)ccc2n1 . Does its IC50 p110 alpha/IC50 p110 delta lie strictly below 10?
Result block: not satisfied

Query block: Hello, is IC50 p110 alpha/IC50 p110 delta of the following molecule strictly smaller than 10? CCn1c(=O)c2ccccc2n1-c1nc(N2CCOCC2)c2nc(CN3CCC(C(C)(C)O)CC3)ccc2n1
Result block: not satisfied

Query block: Does the reported IC50 p110 alpha/IC50 p110 delta of CC(C)(O)C1CCN(Cc2ccc3nc(-c4cnc(N)nc4)nc(N4CCOCC4)c3n2)CC1 stay below 10?
Result block: satisfied

###

- SUBJECT_OF_TEST: p110 delta (Homo sapiens)
- Construct: Dundee, UK
- ASSAY_NAME: PI3K Isoform Inhibition Assay, p110 delta
- ASSAY_SETUP: PI3K isoform inhibition assay of Example 901
For each entry below, report its IC50 value.
Field: numeric (nM). Do not append units.

Query block: // fetch IC50 given entry CC(C)(O)C1CCN(Cc2ccc3nc(-n4ccc5ccccc54)nc(N4CCOCC4)c3n2)CC1 [Compound 128]
Result block: 81.9

Query block: Report measured IC50; entry is CO[C@@H](C)c1nc2ccccc2n1-c1nc(N2CCOCC2)c2nc(CN3CCC(C(C)(C)O)CC3)ccc2n1 [Compound 114]
Result block: 1.78

Query block: Supply recorded IC50 for CCc1nc2ccccc2n1-c1nc(N2CCOCC2)c2nc(CN3CC(N4CCNC(=O)C4)C3)ccc2n1 [Compound 134] here.
Result block: 3.56

Query block: For the molecule Cc1oc2ccccc2c1-c1nc(N2CCOCC2)c2nc(CN3CCC(C(C)(C)O)CC3)ccc2n1 [Compound 103] , give its measured IC50 value.
Result block: 10.5

Query block: Report measured IC50; entry is CO[C@H](C)c1nc2ccccc2n1-c1nc(N2CCOCC2)c2nc(CN3CCC(C(C)(C)O)CC3)ccc2n1 [Compound 115]
Result block: 7.11

Query block: Note IC50 for the molecule shown: OCc1ccc2nc(-c3c(F)ccc4[nH]ccc34)nc(N3CCOCC3)c2n1 [Compound 108]
Result block: 26.5

Query block: Give IC50 for the following molecule: CC(C)(O)C1CCN(Cc2ccc3nc(-c4cccc5[nH]ncc45)nc(N4CCOCC4)c3n2)CC1 [Compound 110]
Result block: 6.32

Query block: Let me know recorded IC50 for Fc1ccc2[nH]ccc2c1-c1nc(N2CCOCC2)c2nc(CN3CC(N4CCOCC4)C3)ccc2n1 [Compound 126] , thanks.
Result block: 1.14

Query block: Find the measured IC50 of CC(C)n1ncnc1-c1ccc2nc(-c3c(F)ccc4[nH]ccc34)nc(N3CCOCC3)c2n1 [Compound 141] and report it.
Result block: 63.6

Query block: Return IC50 for the following molecule: CCc1nc2ccccc2n1-c1nc(N2CCOCC2)c2nc(CN3CC(N4CCOCC4)C3)ccc2n1 [Compound 131]
Result block: 2.23

Query block: // fetch IC50 given entry CCn1c(=O)c2ccccc2n1-c1nc(N2CCOCC2)c2nc(CN3CCC(C(C)(C)O)CC3)ccc2n1 [Compound 104]
Result block: 11.8

Query block: Look up and report measured IC50 for this entry: CC(C)(C(N)=O)N1CCN(Cc2ccc3nc(-c4ccc(N)nc4)nc(N4CCOCC4)c3n2)CC1 [Compound 124]
Result block: 2.03

Query block: Tell me measured IC50 for O=C1CN(C2CN(Cc3ccc4nc(-c5c(F)ccc6[nH]ccc56)nc(N5CCOCC5)c4n3)C2)CCN1 [Compound 127] please.
Result block: 1.75

Query block: Determine from records and report IC50 for CC(C)c1nc2ccccc2n1-c1nc(N2CCOCC2)c2nc(CN3CC(C4CCOCC4)C3)ccc2n1 [Compound 113]
Result block: 8.52

Query block: Kindly indicate its recorded IC50. Item: COC1CN(c2cnc3c(N4CCOCC4)nc(-c4cnc(N)nc4)nc3c2)C1 [Compound 200]
Result block: 716

Query block: Item Fc1ccc2[nH]ccc2c1-c1nc(N2CCOCC2)c2nc(CN3CC(N4CCC(F)(F)CC4)C3)ccc2n1 [Compound 125] : provide IC50
Result block: 1.52

Query block: Provide IC50 value for the following molecule: CC(C)(O)C1CCN(Cc2ccc3nc(-c4ccc(N)nc4)nc(N4CCOCC4)c3n2)CC1 [Compound 122]
Result block: 5.42

Query block: Report IC50, nothing else, for this molecule: CC(C)Oc1cnc2c(N3CCOCC3)nc(-c3cnc(N)nc3)nc2c1 [Compound 201]
Result block: 4.91

Query block: Please report IC50 for the following molecule: CC(C)c1nc2ccccc2n1-c1nc(N2CCOCC2)c2nc(C(=O)N3CCC(C(C)(C)O)CC3)ccc2n1 [Compound 119]
Result block: 87.8

Query block: Determine its reported IC50: COC1CN(c2cnc3c(N4CCOCC4)nc(N4CC(OC)C4)nc3c2)C1 [Compound 199]
Result block: 728

Query block: Please report the measured IC50 for Fc1ccc2[nH]ccc2c1-c1nc(N2CCOCC2)c2nc(CN3CCC(C4COC4)CC3)ccc2n1 [Compound 130]
Result block: 3.12

Query block: // Input: CC(C)(O)C1CCN(Cc2ccc3nc(-n4c(C(F)(F)F)nc5ccccc54)nc(N4CCOCC4)c3n2)CC1 [Compound 156] . Output its IC50 only.
Result block: 2.86
